Reference for the values: patent US20130209454A1

neutralization IC50: recorded values
MEASUREMENT TARGET: HIV-1 strain CAP45.2.00.G3 envelope (gp120) (HIV-1)
TEST NAME: cell-based or functional assay
QUANTITY KIND: neutralization IC50

- BINDER: "3BNC60 IgG (antibody, V domains shown) VH: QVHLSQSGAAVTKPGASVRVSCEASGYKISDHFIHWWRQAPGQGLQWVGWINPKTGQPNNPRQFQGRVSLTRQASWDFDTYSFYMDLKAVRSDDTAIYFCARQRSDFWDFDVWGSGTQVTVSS VL: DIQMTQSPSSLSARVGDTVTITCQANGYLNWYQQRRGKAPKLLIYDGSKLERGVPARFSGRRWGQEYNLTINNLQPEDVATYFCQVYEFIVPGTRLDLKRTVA"
  QUANTITY KIND: "neutralization IC50"
  MEAS VALUE: "10 µg/mL"
- BINDER: "3BNC117 IgG (antibody, V domains shown) VH: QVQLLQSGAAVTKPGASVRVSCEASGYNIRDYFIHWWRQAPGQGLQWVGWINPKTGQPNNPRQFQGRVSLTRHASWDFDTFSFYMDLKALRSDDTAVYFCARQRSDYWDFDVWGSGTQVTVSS VL: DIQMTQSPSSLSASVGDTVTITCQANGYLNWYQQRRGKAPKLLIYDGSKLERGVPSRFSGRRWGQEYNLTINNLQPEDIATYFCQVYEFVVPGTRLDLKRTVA"
  QUANTITY KIND: "neutralization IC50"
  MEAS VALUE: "16 µg/mL"
- BINDER: "12A12 IgG (antibody, V domains shown) VH: SQHLVQSGTQVKKPGASVRISCQASGYSFTDYVLHWWRQAPGQGLEWMGWIKPVYGARNYARRFQGRINFDRDIYREIAFMDLSGLRSDDTALYFCARDGSGDDTSWHLDPWGQGTLVIVSA VL: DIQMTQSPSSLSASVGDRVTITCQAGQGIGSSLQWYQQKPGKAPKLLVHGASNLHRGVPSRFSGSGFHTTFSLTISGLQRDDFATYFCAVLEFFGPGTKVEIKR"
  QUANTITY KIND: "neutralization IC50"
  MEAS VALUE: "0.4 µg/mL"
- BINDER: "3BNC55 IgG (antibody, V domains shown) VH: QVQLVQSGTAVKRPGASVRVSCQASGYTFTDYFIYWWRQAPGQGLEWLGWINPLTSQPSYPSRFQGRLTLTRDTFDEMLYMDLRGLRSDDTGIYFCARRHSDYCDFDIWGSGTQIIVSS VL: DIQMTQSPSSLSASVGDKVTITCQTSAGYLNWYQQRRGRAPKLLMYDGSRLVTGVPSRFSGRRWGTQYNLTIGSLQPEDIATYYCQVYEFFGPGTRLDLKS"
  QUANTITY KIND: "neutralization IC50"
  MEAS VALUE: "> 50 µg/mL"
